# ASSAY TEXT: self-splicing fitness, log relative to wild type (ln ratio); higher = more splicing; Tetrahymena group I intron in knt gene, E. coli kanamycin selection, DiMSum; sequences stand for … in CUCUCU…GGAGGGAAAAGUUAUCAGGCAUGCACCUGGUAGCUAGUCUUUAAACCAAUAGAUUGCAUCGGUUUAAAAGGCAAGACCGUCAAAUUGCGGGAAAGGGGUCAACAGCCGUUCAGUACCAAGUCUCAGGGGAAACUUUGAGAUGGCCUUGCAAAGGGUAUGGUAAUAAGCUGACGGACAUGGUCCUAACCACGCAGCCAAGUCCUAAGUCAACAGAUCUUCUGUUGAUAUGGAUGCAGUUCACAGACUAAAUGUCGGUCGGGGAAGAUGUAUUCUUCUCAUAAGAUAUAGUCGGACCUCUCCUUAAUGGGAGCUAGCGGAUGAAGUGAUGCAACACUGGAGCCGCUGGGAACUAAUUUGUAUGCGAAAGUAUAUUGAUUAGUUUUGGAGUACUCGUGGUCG;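 note: selection with 25 µg/mL kanamycin versus none on LB agar overnight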
# MEASUREMENT CONTEXT: 37 °C
// map self-splicing fitness (ln) onto a label; ranges 1: < -2; 2: ≥ -2 and < -0.8; 3: ≥ -0.8

Please review the following examples before continuing.
sequence_text=UCCAAGCAAUAUUACGUGAU category_label=2
sequence_text=GGACAGCAAUAUUACGGCCA category_label=3
sequence_text=CUGAAGCAAUAUUACGGGCG category_label=3
sequence_text=GGGUAGCAAUAUUACGGAAA category_label=3
sequence_text=GCGAAGCAAUAUUACGCGAG category_label=1

Which band does `GAGGAGCAAUAUUACGGGAA` fall in? 2

Check `UAAGAGCAAUAUUACGUCUA` too. 3
